Answer each item with its documented IC50.
molecular target: mGFP-K-RASG12V (Homo sapiens (Human), UniProt P01116, G12V); assay: K-Ras mislocalization assay (confocal microscopy, Manders coefficient); format: cell-based; details: MDCK cells, 48 h treatment; read-out: IC50 (μM), KRASG12V mislocalization
Number in µM, nothing else.

-- ask Given the entry COc1cc(C(=CCN(CCN2CCCC2)[C@H](C)c2ccc(F)cc2)c2cc(OC)c(OC)c(OC)c2)cc(OC)c1OC , report its measured IC50.
-- reply 1.02

-- ask Also check C[C@H](c1ccc(F)cc1)N(C/C=C(/c1ccccc1)c1ccc(OC(F)(F)F)cc1)CCN1CCCC1
-- reply 0.725

-- ask Also check C(CN(CC=C(c1ccccc1)c1ccccc1)C1(c2ccccc2)CC1)=C(c1ccccc1)c1ccccc1
-- reply 1.46

-- ask Also check COc1ccc([C@@H](C)N(CC=C(c2ccccc2)c2ccccc2)CCN2CCCC2)cc1
-- reply 0.3

-- ask Also check C(CN(CCN1CCCC1)C1(c2ccccc2)CC1)=C(c1ccccc1)c1ccccc1
-- reply 0.73

-- ask Also check O=S(=O)(c1ccc(F)cc1)N(CC=C(c1ccccc1)c1ccccc1)CCN1CCCC1
-- reply 3.97

-- ask Also check COc1ccc([C@@H](C)N(CC=C(c2ccccc2)c2ccccc2)CCN2CCN(C)CC2)cc1
-- reply 0.1

-- ask Also check C[C@H](c1ccc(F)cc1)N(CC=C(c1ccccc1)c1ccccc1)CCn1ccc2cccnc21
-- reply 2.27

###

test system: MDCK cells co-expressing GFP-K-RASG12V and mCherry-CAAX; assay: Cytotoxicity in mislocalization screen (death of all cells in well); settings: drug caused death of all cells in well at 30 μM
PROPERTY_LABEL: Cytotoxic at 30 μM

# annotated cases, reported Cytotoxic at 30 μM shown
molecule=CCCCNC(=O)N(CC=C(c1ccccc1)c1ccccc1)[C@H](C)c1ccc(OC)cc1 result=No
molecule=COc1ccc([C@@H](C)N(CC=C(c2ccccc2)c2ccccc2)CCF)cc1 result=No
molecule=COc1ccc([C@@H](C)N(CC=C(c2ccccc2)c2ccccc2)S(C)(=O)=O)cc1 result=No
molecule="C[C@H](c1cccc(Cl)c1)N(CC=C(c1ccccc1)c1ccccc1)CCN1CCN(C)CC1 [NY0370b]" result=Yes

Please look at the following molecule next.
-- ask Given the entry COc1ccc([C@@H](C)N(C/C=C/c2ccccc2)CCN2CCN(C)CC2)cc1 , report its measured Cytotoxic at 30 μM.
-- reply No

###

tested on: MPanc96 (Mut) pancreatic tumor cells; test: CyQUANT proliferation assay; type: cell-based; conditions: Table 11, pancreatic; read-out: IC50 (μM) MPanc96 (Mut)
PROPERTY_LABEL: IC50

-- ask Write down the reported IC50 of COc1ccc([C@@H](C)N(CC=C(c2ccccc2)c2ccccc2)CC=C(c2ccccc2)c2ccccc2)cc1 [Compound 7, reference compound] , test system: MPanc96 (Mut) pancreatic tumor cells.
-- reply > 30 µM

###

test system: Hec1A (Mut) endometrial tumor cells; assay: CyQUANT proliferation assay; type: cell-based; conditions: Table 11, endometrial; read-out: IC50 (μM) Hec1A (Mut)
PROPERTY_LABEL: IC50

-- ask Given the entry COc1ccc([C@@H](C)N(CC=C(c2ccccc2)c2ccccc2)CC=C(c2ccccc2)c2ccccc2)cc1 [Compound 7, reference compound] , report its measured IC50.
-- reply > 30 µM

###

tested on: MOH (Mut) pancreatic tumor cells; assay: CyQUANT proliferation assay; format: cell-based; conditions: Table 11, pancreatic; read-out: IC50 (μM) MOH (Mut)
PROPERTY_LABEL: IC50 (µM)
Number in µM, nothing else.

-- ask Write down the reported IC50 of COc1ccc([C@@H](C)N(CC=C(c2ccccc2)c2ccccc2)CCCN2CCN(C)CC2)cc1 , test system: MOH (Mut) pancreatic tumor cells.
-- reply 3.8

-- ask Also check COc1ccc([C@@H](C)N(CC=C(c2ccccc2)c2ccccc2)CCN2CCCC2)cc1
-- reply 4

-- ask Also check CC(NCCC(c1ccccc1)c1ccccc1)c1ccccc1 (centres unmarked)
-- reply 11.1

-- ask Also check COc1ccc([C@@H](C)N(CC=C(c2ccccc2)c2ccccc2)CCN2CCN(C)CC2)cc1
-- reply 3.7

###

target: mGFP-K-RASG12V (Homo sapiens (Human), UniProt P01116, G12V); test: K-Ras mislocalization assay (confocal microscopy, Manders coefficient); assay type: cell-based
PROPERTY_LABEL: EC50 (nM)
Number in nM, nothing else.

-- ask Given the entry C(CNC1(c2ccccc2)CCCCC1)=C(c1ccccc1)c1ccccc1 , report its measured EC50.
-- reply 1340

###

Answer each item with its documented pEC50.
biological target: mGFP-K-RASG12V (Homo sapiens (Human), UniProt P01116, G12V); assay: K-Ras mislocalization assay (confocal microscopy, Manders coefficient); format: cell-based; conditions: batch 4 compounds; MDCK cells, 48 h; title calls it IC50; read-out: EC50
As a rule, pEC50 stands for the negative log10 of the concentration, concentration in M.

-- ask Given the entry C[C@H](c1ccc(F)cc1)N(CC=C(c1ccccc1)c1ccccc1)CCN1CCN(C)CC1 , report its measured pEC50.
-- reply 5.82

-- ask Also check O=C(O)[C@H](NCC=C(c1ccccc1)c1ccccc1)c1ccccc1
-- reply 5.36

-- ask Also check C[C@@H](NCCN1c2ccccc2Sc2ccccc21)c1ccccc1
-- reply 5.32

-- ask Also check C[C@@H](NCCN1c2ccccc2CCc2ccccc21)c1ccc(F)cc1
-- reply 5.39

-- ask Also check C[C@@H](NCC(=O)N1c2ccccc2Sc2ccccc21)c1ccc(F)cc1
-- reply 5.76

-- ask Also check COc1ccc([C@@H](C)N(CC=C(c2ccccc2)c2ccccc2)CCCO)cc1
-- reply 5.80

-- ask Also check CCCCNC(=O)N(CC=C(c1ccccc1)c1ccccc1)[C@H](C)c1ccc(OC)cc1
-- reply 5.77

-- ask Also check C[C@H](c1ccc(Cl)cc1)N(CC=C(c1ccccc1)c1ccccc1)CCN1CCN(C)CC1
-- reply 5.42

-- ask Also check CCN1CCN(CCN(CC=C(c2ccccc2)c2ccccc2)[C@H](C)c2ccc(OC)cc2)CC1
-- reply 5.66

###

target: mGFP-K-RASG12V (Homo sapiens (Human), UniProt P01116, G12V); assay: K-Ras mislocalization assay (confocal microscopy, Manders coefficient); format: cell-based; design: key: Manders coefficient: fraction of mCherry-CAAX co-localizing with GFP-K-Ras; details: maximal effect, Manders coefficient; MDCK cells, 48 h
PROPERTY_LABEL: Emax
I only need the number, thanks.

-- ask Write down the reported Emax of Fc1ccc(CN(CC=C(c2ccccc2)c2ccccc2)CCN2CCCC2)cc1 [PW278] , test system: mGFP-K-RASG12V (Homo sapiens (Human), UniProt P01116, G12V).
-- reply 0.739

-- ask Also check COc1ccc([C@@H](C)N(CC=C(c2ccccc2)c2ccccc2)CCN2CCNC(=O)C2)cc1 [NY325]
-- reply 0.81

-- ask Also check COc1ccc([C@@H](C)N(CC=C(c2ccccc2)c2ccccc2)CCN2CCNCC2)cc1 [NY347]
-- reply 0.86

-- ask Also check Fc1ccc2c(c1)CCCN2CC=C(c1ccccc1)c1ccccc1 [NY293]
-- reply 0.910

-- ask Also check Cc1cc(C)n(CCN(CC=C(c2ccccc2)c2ccccc2)[C@H](C)c2ccc(F)cc2)n1 [PW299]
-- reply 0.696

-- ask Also check O=S(=O)(c1ccc(F)cc1)N(CC=C(c1ccccc1)c1ccccc1)CCN1CCCC1 [PW277]
-- reply 0.592

-- ask Also check CCN(CC=C(c1ccccc1)c1ccccc1)[C@@H](C)c1ccc(OC)cc1 [NY0431]
-- reply 0.756

-- ask Also check C(CN(CCN1CCCC1)Cc1cc2cccnc2[nH]1)=C(c1ccccc1)c1ccccc1 [PW293]
-- reply 0.83

-- ask Also check C#CCN1CCN(CCN(CC=C(c2ccccc2)c2ccccc2)[C@H](C)c2ccc(OC)cc2)CC1 [NY356]
-- reply 0.886

-- ask Also check C(CN(CCN1CCCC1)C1(c2ccccc2)CC1)=C(c1ccccc1)c1ccccc1 [NY0444]
-- reply 0.732

-- ask Also check C[C@@H](NCC(=O)N1c2ccccc2CCc2ccccc21)c1ccc(F)cc1 [NY0583]
-- reply 0.725

-- ask Also check Cc1ccc(C(=CCN(CCN2CCCC2)[C@H](C)c2ccc(F)cc2)c2ccc(C)cc2)cc1 [PW327]
-- reply 0.808

-- ask Also check CCNC(=O)N(CC=C(c1ccccc1)c1ccccc1)[C@H](C)c1ccc(OC)cc1 [NY0504]
-- reply 0.845

-- ask Also check COc1ccc([C@@H](C)N(CC=C(c2ccccc2)c2ccccc2)CCCCN2CCN(C)CC2)cc1 [NY0449]
-- reply 0.810

-- ask Also check C#CCN(CC=C(c1ccccc1)c1ccccc1)[C@H](C)c1ccc(OC)cc1 [NY0234]
-- reply 0.703

-- ask Also check C(CN1CCCc2ccccc21)=C(c1ccccc1)c1ccccc1 [NY0237]
-- reply 0.79

-- ask Also check C[C@@H](NCCN1c2ccccc2Sc2ccccc21)c1ccc(F)cc1 [NY0575]
-- reply 0.484

-- ask Also check COc1ccc([C@@H](C)N(CC=C(c2ccccc2)c2ccccc2)CCCN2CCCC2)cc1 [NY0502]
-- reply 0.878
